Assay: Metabolic stability of the compound in mouse plasma assessed as compound remaining at 10 uM after 3 hrs by LC/MS/MS analysis
Type: ADME, cell-free
Conditions: read-out: Stability
Assay Readout: remaining at 3 h, 10 µM (%)
Number in %, nothing else.

CC(C)(C)c1ccc(-n2sc3ccccc3c2=O)cc1 = 10

// remaining at 3 h, 10 µM lookup, key: `O=c1c2cc(F)ccc2sn1-c1ccccc1` 99

What measured remaining at 3 h, 10 µM goes with `Cc1ccc(C)c(-n2sc3cc(F)ccc3c2=O)c1` ? 48

====

Assay: Inhibition of human purified phosphomannose isomerase
Assay Readout: IC50 (µM)
Output spec: scalar in µM, unitless text.

Sample `NC(=O)C1(NC(=O)CCCOc2ccc(Cl)cc2Cl)Cc2ccccc2C1` — what was its IC50? 40

====

Biological target: Mannose-6-phosphate isomerase (Homo sapiens, UniProt P34949)
Sequence (P34949 whole entry): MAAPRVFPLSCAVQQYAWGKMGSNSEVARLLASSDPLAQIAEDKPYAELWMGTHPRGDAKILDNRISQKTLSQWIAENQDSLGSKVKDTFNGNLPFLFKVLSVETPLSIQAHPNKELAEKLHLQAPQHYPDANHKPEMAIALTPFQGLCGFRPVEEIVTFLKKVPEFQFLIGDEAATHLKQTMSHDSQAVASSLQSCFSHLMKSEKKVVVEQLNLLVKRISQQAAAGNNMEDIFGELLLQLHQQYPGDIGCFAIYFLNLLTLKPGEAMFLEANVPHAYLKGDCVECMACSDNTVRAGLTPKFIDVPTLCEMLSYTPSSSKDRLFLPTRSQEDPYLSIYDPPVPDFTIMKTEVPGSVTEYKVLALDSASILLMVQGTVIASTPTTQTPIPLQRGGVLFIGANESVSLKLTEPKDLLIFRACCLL
# maps each entry to its pIC50
Lab note — pIC50 values are minus log10 of concentrations in M.

Please give the measured pIC50 for this molecule: `Cc1ccc(C)c(-n2sc3ccccc3c2=O)c1` 5.18

Give its pIC50 value. Item: `Cc1ccc(-n2sc3ccccc3c2=O)cc1` 5.28

Tell me the measured pIC50 of `Cc1ccc(C)c(-n2sc3cc(F)ccc3c2=O)c1` , please. 6.00

Entry under review: `CN(C)c1ccc(-n2sc3ccccc3c2=O)cc1` . Reported pIC50? 5.72

====

Biological target: Phosphomannomutase 2 (Homo sapiens)
Sequence (O15305 whole entry): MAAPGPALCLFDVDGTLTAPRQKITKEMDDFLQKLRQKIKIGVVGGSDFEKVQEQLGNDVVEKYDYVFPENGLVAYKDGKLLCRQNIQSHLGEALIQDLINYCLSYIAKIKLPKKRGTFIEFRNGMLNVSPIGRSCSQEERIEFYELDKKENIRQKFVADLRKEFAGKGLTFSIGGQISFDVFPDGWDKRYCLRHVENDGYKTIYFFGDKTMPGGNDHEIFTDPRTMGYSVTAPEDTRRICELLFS
pIC50: −log10 of the molar value.
Assay Readout: pIC50

Solved cases below.
O=c1c2ccccc2sn1-c1cccc(Cl)c1 = < 4.70
O=c1c2ccccc2sn1-c1cccc(I)c1 = < 4.70
CN(C)c1ccc(-n2sc3ccccc3c2=O)cc1 = 4.88

Which pIC50 value belongs to `COc1cccc(-n2sc3ccccc3c2=O)c1` ? < 5.00

Look up pIC50 for this compound: `O=c1c2cc(F)ccc2sn1-c1ccccc1` < 4.10

// returns reported pIC50 for input `Cc1cccc(-n2sc3ccccc3c2=O)c1` < 4.70

====

The following molecules are shown together with reported remaining at 1 h, 10 µM values.
Experiment: Metabolic stability of the compound in mouse liver microsomes assessed as compound remaining at 10 uM after 1 hr by LC/MS/MS analysis
Assay type: ADME, Microsome
Conditions: read-out: Stability
The figure you give is taken to be in %; do not add the unit.

Use these answered entries as a reference point.
Cc1ccc(C)c(-n2sc3ccc(F)cc3c2=O)c1 = 81
CC(C)(C)c1ccc(-n2sc3ccccc3c2=O)cc1 = 62
O=c1c2cc(F)ccc2sn1-c1ccccc1 = 85

// lookup remaining at 1 h, 10 µM for `Cc1ccc(C)c(-n2sc3cc(F)ccc3c2=O)c1` 82.3

====

Biological target: Phosphomannomutase 2 (Homo sapiens)
Collected IC50 values appear next to each entry.

Provide the documented IC50 with Phosphomannomutase 2 (Homo sapiens) as the system for `Cc1ccccc1-n1sc2cc(F)ccc2c1=O` > 20 µM

For the record `O=c1c2cc(F)ccc2sn1-c1ccc(Cl)cc1` , what value of IC50 is listed for Phosphomannomutase 2 (Homo sapiens)? > 20 µM

// map `CN(C)c1cccc(-n2sc3ccccc3c2=O)c1` to recorded IC50 (system: Phosphomannomutase 2 (Homo sapiens)) > 20 µM

Notebook entry, Phosphomannomutase 2 (Homo sapiens) assay: IC50 of `O=c1c2cc(F)ccc2sn1-c1ccccc1F` = ? > 20 µM

Reported IC50 for Phosphomannomutase 2 (Homo sapiens), given `CCOC(=O)c1ccc(-n2sc3ccccc3c2=O)cc1` ? > 20 µM

Form entry - test system: Phosphomannomutase 2 (Homo sapiens); read-out: IC50; molecule: `O=c1c2ccccc2sn1-c1ccc(C(F)(F)F)cc1` > 20 µM

IC50 of `O=c1c2cc(F)ccc2sn1-c1cccc(F)c1` on Phosphomannomutase 2 (Homo sapiens)? > 20 µM

# returns recorded IC50 (system: Phosphomannomutase 2 (Homo sapiens)) for `CC(C)(C)c1ccc(-n2sc3ccccc3c2=O)cc1` > 20 µM

For the record `O=c1c2cc(F)ccc2sn1-c1ccc(F)cc1` , what value of IC50 is listed for Phosphomannomutase 2 (Homo sapiens)? > 80 µM

Which IC50 is reported with Phosphomannomutase 2 (Homo sapiens) for this entry: `O=c1c2ccccc2sn1-c1ccc(Cl)cc1` ? > 20 µM

Param readout= IC50; system= Phosphomannomutase 2 (Homo sapiens); entry= `O=c1c2ccccc2sn1-c1cccc(C(F)(F)F)c1` ; returns value. 13.9 µM

Quick check: IC50 on Phosphomannomutase 2 (Homo sapiens), item `O=c1c2ccccc2sn1-c1ccc2ccccc2c1` ? > 20 µM

Param readout= IC50; system= Phosphomannomutase 2 (Homo sapiens); entry= `Cc1ccc(-n2sc3ccccc3c2=O)cc1` ; returns value. > 20 µM

====

Assay: Solubility of the compound at pH 7.4
Assay type: physicochemical
Settings: buffer
solubility for assorted molecules
Kindly answer with a numeric value in µg/mL, unit omitted.

Please review the entries below; each comes with its answer.
O=c1c2cc(F)ccc2sn1-c1ccccc1 = 3.8
CC(C)(C)c1ccc(-n2sc3ccccc3c2=O)cc1 = 2.5
Cc1ccc(C)c(-n2sc3cc(F)ccc3c2=O)c1 = 22.5

I am curious: what solubility value has been reported for `Cc1ccc(C)c(-n2sc3ccc(F)cc3c2=O)c1` ? 11

====

Assay: Cmax in C57BL/6 mouse at 20 mg/kg, po
Type: ADME, organism-based
Set-up: dose 20 mg/kg, route oral
Conditions: in vivo
Assay Readout: Cmax (µM)
State just the number; it will be interpreted in µM.

Item `O=c1c2cc(F)ccc2sn1-c1ccccc1` has what recorded Cmax? 0.162

====

Assay: in vivo
Conditions: C57BL/6, mouse, po, 20 mg/kg
Assay Readout: Tmax (min)
State just the number; it will be interpreted in min.

Can you look up the measured Tmax of `O=c1c2cc(F)ccc2sn1-c1ccccc1` for me? 45
